Just for reference, PubChem BioAssay AID886 is where these values come from.

Target: 3-hydroxyacyl-CoA dehydrogenase type-2 (Homo sapiens)
Test: qHTS Assay for Inhibitors of HADH2 (Hydroxyacyl-Coenzyme A Dehydrogenase, Type II); further: nearly all actives have a fitted effect of over 60% in size
Settings: recombinant HADH2, NADH fluorescence, beta-hydroxybutyryl-CoA; series mostly up to 57.1 µM
Out of some 73,000 compounds screened, about 2,500 (3.4%) were called active. About 7% were inconclusive and are not listed. The call rests on the fitted dose curve; in most records, active means well fitted inhibition curve with a large enough effect; inconclusive means small, poorly fitted or top-dose-only effect; inactive means no such curve, though single readings can be large or run the other way. The entries come from a sample that favours actives as a whole.
Classes used: active, inactive

>  <chemical.smiles>
Cc1ccc(NC(=O)c2cccc(N(C)C)c2)cc1NC(=O)c1ccc(O)cc1

>  <classification>
inactive

$$$$
>  <chemical.smiles>
CS(=O)(=O)N1CCC2(CC1)CN(Cc1ccccc1)C2

>  <classification>
inactive

$$$$
>  <chemical.smiles>
N#Cc1cccc(-c2nc3cnc(N4CCNCC4)nc3n(C3CC3)c2=O)c1

>  <classification>
inactive

$$$$
>  <chemical.smiles>
O=C(COC(=O)c1ccc(Oc2ccccc2)cc1)Nc1nnc(-c2ccccc2)o1

>  <classification>
inactive

$$$$
>  <chemical.smiles>
CCn1c(CNC(=O)c2ccc(OC)c(OC)c2)nnc1SCC(=O)Nc1ccccc1

>  <classification>
inactive

$$$$
>  <chemical.smiles>
COc1ccc(CCn2c(-c3ccco3)nc3nc4ccccc4nc32)cc1OC

>  <classification>
inactive

$$$$
>  <chemical.smiles>
Nc1ccc(-c2nnc(-c3ccc(-c4ccccc4)cc3)o2)cc1

>  <classification>
active

$$$$
>  <chemical.smiles>
C=CC(=C)CCC=C(C)C

>  <classification>
inactive

$$$$
>  <chemical.smiles>
Cc1ccc(OCC(=O)Nc2ccc(-c3nnc(-c4ccco4)o3)cc2)cc1

>  <classification>
inactive

$$$$
>  <chemical.smiles>
Cc1ccc(OCC(=O)Nc2ccc(-c3nc4ncccc4o3)cc2)cc1

>  <classification>
inactive

$$$$
>  <chemical.smiles>
O=C(O)c1ccc(Cl)c(S(=O)(=O)Nc2ccccc2Cl)c1

>  <classification>
inactive

$$$$
>  <chemical.smiles>
C/C=C/C=C/C(=O)O

>  <classification>
inactive

$$$$
